# target-or-system: UniProt Q9GZU1
# protocol-text: Fluorescent TRPML1 assay (Fluo4-AM calcium fluorescence in doxycycline-induced HEK-293 Trex cells)
# Format: cell-based
# applied-conditions: fluorescent calcium assay
EC50 listing for selected compounds.

Below, 2 compounds whose answers are already recorded.
(Q) Fill in: EC50 of C[C@H]1CN(C(=O)OC(C)(C)C)CCN1c1ncnc2c1c(C1CC1)cn2-c1ncc(C#N)[nH]1 is ___
(A) > 2000 nM

(Q) Query (compound): C[C@H]1CN(C(=O)OC(C)(C)C)CCN1c1ncnc2c1c(-c1ccccn1)cn2-c1cccc(Cl)c1 ; field requested: EC50
(A) < 100 nM

Let us examine a further case.
(Q) GET /values?readout=EC50&item= C[C@@H]1CN(c2ncnc3c2c(N2CCCC2)cn3-c2cccc(C#N)c2)CCN1C(=O)OC(C)(C)C
(A) < 100 nM

----------
# target-or-system: UniProt:Q9GZU1
# protocol-text: Fluorescent TRPML1 assay (Fluo4-AM calcium fluorescence in doxycycline-induced HEK-293 Trex cells)
# Format: cell-based
# applied-conditions: fluorescent calcium assay
measured-metric: EC50

Example entries begin here.
(Q) Report EC50 for CC(C)(C)OC(=O)N1CCN(c2ncnc3c2c(C2CC2)cn3-c2ccc(F)c(F)c2)CC1 please.
(A) < 100 nM

(Q) Would you mind telling me what EC50 value was observed for C[C@@H]1CN(c2ncnc3c2c(C2CC2)cn3-c2cccnc2)[C@@H](C)CN1C(=O)OC(C)(C)C ?
(A) 500 to 2000 nM

(Q) Quick check: EC50 of C[C@H]1CN(C(=O)OCC(F)(F)F)CCN1c1ncnc2c1c(-c1ccccc1)cn2-c1cc(C#N)ccn1 ?
(A) < 100 nM

(Q) Look up EC50 for this molecule: C[C@H]1CN(C(=O)OC(C)(C)C)CCN1c1ncnc2c1c(C1CC1)cn2-c1cc(F)cc(C#N)c1
(A) < 100 nM

(Q) Entry under review: C[C@@H]1CN(c2ncnc3c2c(C2CC2)cn3-c2cccc(Cl)c2)[C@@H](C)CN1C(=O)OC(C)(C)C . Reported EC50?
(A) < 100 nM

(Q) Please report the recorded EC50 for C[C@H]1CN(C(=O)OC(C)(C)C)CCN1c1ncnc2c1c(C1CC1)cn2C1CCC1 .
(A) < 100 nM

Further cases:
(Q) Which EC50 value is on record for C[C@H]1CN(C(=O)OC(C)(C)C)CCN1c1ncnc2c1c(CN1CCCC1)cn2-c1cccc(C#N)c1 ?
(A) 500 to 2000 nM

----------
# target-or-system: TRPML1 (Homo sapiens, UniProt Q9GZU1)
# Sequence (Q9GZU1 whole entry L15A/L16A/L577A/L578A, form open): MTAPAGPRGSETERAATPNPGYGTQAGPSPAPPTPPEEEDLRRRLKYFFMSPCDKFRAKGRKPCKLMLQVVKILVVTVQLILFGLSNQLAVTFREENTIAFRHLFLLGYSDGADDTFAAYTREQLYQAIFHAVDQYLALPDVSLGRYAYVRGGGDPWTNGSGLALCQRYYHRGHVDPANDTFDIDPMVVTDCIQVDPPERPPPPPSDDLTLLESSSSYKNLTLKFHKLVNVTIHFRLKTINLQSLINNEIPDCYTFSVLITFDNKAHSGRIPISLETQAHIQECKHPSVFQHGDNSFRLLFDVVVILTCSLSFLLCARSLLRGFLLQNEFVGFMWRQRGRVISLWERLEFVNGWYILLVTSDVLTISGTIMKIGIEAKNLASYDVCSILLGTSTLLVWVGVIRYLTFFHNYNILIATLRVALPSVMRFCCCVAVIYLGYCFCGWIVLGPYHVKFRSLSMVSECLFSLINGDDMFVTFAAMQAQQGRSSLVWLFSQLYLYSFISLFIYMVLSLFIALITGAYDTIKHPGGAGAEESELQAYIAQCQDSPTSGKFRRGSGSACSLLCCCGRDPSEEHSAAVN
# protocol-text: Fluorescent TRPML1 assay (Fluo4-AM calcium fluorescence in doxycycline-induced HEK-293 Trex cells)
# Assay type: cell-based
measured-metric: EC50

Here's what some known entries look like.
(Q) If you can, please state the reported EC50 value of C[C@@H]1CN(c2ncnc3c2c(C(F)(F)F)cn3-c2cc(C#N)ncn2)[C@@H](C)CN1C(=O)OC(C)(C)C [Compound 509] .
(A) < 0.1 µM

(Q) Which EC50 is listed for C[C@H]1CN(C(=O)OC(C)(C)C)CCN1c1nccc2c1c(C1CCC1)cn2-c1cccc(F)c1 [Compound 706] ?
(A) 0.1 to 0.5 µM

(Q) Any idea what EC50 was measured for Cc1cn(-c2ccc(F)cc2)c2ncnc(N3CCN(C(=O)OC(C)(C)C)C[C@@H]3C)c12 [Compound 692] ?
(A) < 0.1 µM

Query compound follows.
(Q) Quick check: EC50 of Cc1cn(-c2cc(C(F)(F)F)ccn2)c2ncnc(N3CCN(C(=O)OC(C)(C)C)C[C@@H]3C)c12 [Compound 682] ?
(A) < 0.1 µM

----------
# target-or-system: TRPML3 (Homo sapiens)
# Construct: expressed in transfected cells
# Sequence (Q8TDD5 1-553): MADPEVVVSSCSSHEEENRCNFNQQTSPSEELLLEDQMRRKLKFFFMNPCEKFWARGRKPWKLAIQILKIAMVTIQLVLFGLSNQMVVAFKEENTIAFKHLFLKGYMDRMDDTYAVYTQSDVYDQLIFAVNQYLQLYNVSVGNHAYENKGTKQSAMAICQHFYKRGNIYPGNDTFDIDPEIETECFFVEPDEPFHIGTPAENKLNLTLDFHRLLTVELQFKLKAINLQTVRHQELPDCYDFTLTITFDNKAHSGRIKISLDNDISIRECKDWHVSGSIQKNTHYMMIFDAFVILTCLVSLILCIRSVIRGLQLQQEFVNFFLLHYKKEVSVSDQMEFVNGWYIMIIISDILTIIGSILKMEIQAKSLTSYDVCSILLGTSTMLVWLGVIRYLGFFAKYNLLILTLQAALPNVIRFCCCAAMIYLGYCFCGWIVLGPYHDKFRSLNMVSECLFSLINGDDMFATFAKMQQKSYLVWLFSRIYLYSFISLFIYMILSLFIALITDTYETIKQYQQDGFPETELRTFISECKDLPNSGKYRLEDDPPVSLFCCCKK
# protocol-text: Fluorescent TRPML3 assay (performed as for TRPML1, substituting the TRPML3 subtype)
# Assay type: cell-based
# applied-conditions: fluorescent calcium assay
EC50 listing for selected molecules.

Record excerpt, results attached:
(Q) Would you mind telling me what EC50 value was observed for C[C@H]1CN(C(=O)OC(C)(C)C)CCN1c1ncnc2c1c(C1CC1)cn2C1CCCN(C#N)C1 (some centres unmarked) ?
(A) 500 to 2000 nM

(Q) // lookup EC50 for Cc1cncc(-n2cc(-c3cccnc3)c3c(N4CCN(C(=O)OC(C)(C)C)C[C@@H]4C)ncnc32)c1
(A) 500 to 2000 nM

(Q) Dear colleague, I am looking for the recorded EC50 of the following molecule: C[C@H]1CN(C(=O)OC(C)(C)C(F)(F)F)CCN1c1ncnc2c1c(-c1ccccn1)cn2-c1cccc(Cl)c1
(A) < 100 nM

(Q) Item under review: CC(C)(C)OC(=O)N1CCN(c2ncnc3c2c(C2CC2)cn3-c2cc(F)cc(F)c2)C[C@H]1C(F)F (single isomer, unassigned) . Reported EC50?
(A) 500 to 2000 nM

(Q) Reported EC50 for C[C@@H]1CN(C(=O)OC(C)(C)C)CCN1c1ncnc2c1c(C1CCOCC1)cn2-c1cccc(F)c1 : what is it?
(A) 100 to 500 nM

---
(Q) Item under review: C[C@H]1CN(C(=O)OC(C)(C)C)CCN1c1ncnc2c1c(N1CCOCC1)cn2-c1cc(C#N)ccn1 . Reported EC50?
(A) 500 to 2000 nM

(Q) Name the recorded EC50 for Cc1cn(-c2cc(C#N)ccn2)c2ncnc(N3CCN(C(=O)OC(C)(C)C)C[C@@H]3C)c12 .
(A) < 100 nM

(Q) Given the molecule C[C@H]1CN(C(=O)OC(C)(C)C)CCN1c1ncnc2c1c(C1CC1)cn2-c1ccc(C#N)n1C , what is its reported EC50?
(A) 100 to 500 nM

(Q) For the molecule C[C@@H]1CN(c2ncnc3c2c(C(F)(F)F)cn3-c2cccc(Cl)c2)[C@@H](C)CN1C(=O)OC(C)(C)C , what EC50 is on record?
(A) < 100 nM

(Q) Sample C[C@H]1CN(C(=O)OC(C)(C)C(F)(F)F)CCN1c1ncnc2c1c(C1CCC1)cn2-c1cc(C#N)ccn1 — what was its EC50?
(A) < 100 nM

(Q) Recorded EC50 for C[C@@H]1CN(c2ncnc3c2c(-c2ccccc2F)cn3-c2cc(Cl)ccn2)[C@@H](C)CN1C(=O)OC(C)(C)C , please?
(A) < 100 nM

(Q) Query (molecule): C[C@@H]1CN(C(=O)OC(C)(C)C)CCN1c1ncnc2c1c(C1CC1)cn2-c1cccc(OC(F)(F)F)c1 ; field requested: EC50
(A) < 100 nM

(Q) Entry C[C@H]1CN(C(=O)OC(C)(C)C)CCN1c1ncnc2c1c(-c1cccnc1)cn2-c1cccc(Cl)c1 : reported EC50 = ?
(A) < 100 nM

(Q) # lookup: EC50 of C[C@H]1CN(C(=O)OC(C)(C)C)CCN1c1ncnc2c1c(C1CC1)cn2-c1cc(F)ccn1
(A) < 100 nM

----------
In this section, each of the molecules is paired with its reported pEC50.
# target-or-system: TRPML1 (Homo sapiens)
# protocol-text: Fluorescent TRPML1 assay (Fluo4-AM calcium fluorescence in doxycycline-induced HEK-293 Trex cells)
# Type: cell-based
pEC50: −log10 of the molar value.

Example entries and their recorded answers appear below.
(Q) What value of pEC50 has been recorded for this entry: [2H]C([2H])([2H])C(OC(=O)N1C[C@H](C)N(c2ncnc3c2c(C(F)(F)F)cn3-c2cc(C#N)ccn2)C[C@@H]1C)(C([2H])([2H])[2H])C([2H])([2H])[2H]
(A) > 7.00

(Q) Suppose we examine the molecule C[C@@H]1CN(c2ncnc3c2c(OC2CCC2)cn3-c2cc(C#N)ccn2)[C@@H](C)CN1C(=O)OC(C)(C)C ; what pEC50 value has been reported?
(A) > 7.00

(Q) Which measured pEC50 value corresponds to Cc1cn(-c2ccccn2)c2ncnc(N3C[C@@H](C)N(C(=O)OC(C)(C)C)C[C@@H]3C)c12 ?
(A) 6.30 to 7.00

New cases:
(Q) Given Cc1cn(-c2cncc(C#N)c2)c2ncnc(N3C[C@@H](C)N(C(=O)OC(C)(C)C)C[C@@H]3C)c12 , state its recorded pEC50.
(A) > 7.00

(Q) Which pEC50 is listed for C[C@@H]1CN(c2ncnc3c2c(C2CCC2)cn3-c2cccc(Cl)c2)[C@@H](C)CN1C(=O)OC(C)(C)C ?
(A) 6.30 to 7.00

(Q) I'd like to know its pEC50. The molecule in question is [2H]C([2H])([2H])C(OC(=O)N1C[C@H](C)N(c2nccc3c2c(C(F)(F)F)cn3-c2cc(C#N)ccn2)C[C@H]1C)(C([2H])([2H])[2H])C([2H])([2H])[2H]
(A) > 7.00
